System: T1, His-tagged P3028 (human, not fully specified)
T1 construct: the tag is put first after 'PGE73=His-tag-P3028'; also called PGE73; not shown: His-tag
T1 peptide: {His‑tag}-VFDEFKPLVEEPQNLIK
Protocol summary: chip ELISA
No end group written: not given here.
I'd be grateful if you could share measured ELISA signal for these entries.
When you answer, write just the number.

In: Which value of ELISA signal has been reported for KKLFTFFVKLSLFTER [P28R D4F] in the records?
Out: 380

In: Which value of ELISA signal has been reported for KKLDTFEVKLSLFTER [P28R F7E] in the records?
Out: 381

In: Which value of ELISA signal has been reported for KKLDTFFVKLSVFTER [P28R L12V] in the records?
Out: 545

In: Which value of ELISA signal has been reported for SKLDTFFVKLSLFTER [P28R K1S] in the records?
Out: 344

In: Which value of ELISA signal has been reported for KKLDTFFVKLSLFAER [P28R T14A] in the records?
Out: 305

In: Which value of ELISA signal has been reported for KKLDTFFVKLSLQTER [P28R F13Q] in the records?
Out: 1140

In: Which value of ELISA signal has been reported for KKLDTFFVKLSLFQER [P28R T14Q] in the records?
Out: 301
